EXPERIMENTAL TARGET: endogenously expressed human MSR1 on PMA-treated THP-1 cells (human) (UniProt P21757)
Sequence (P21757 whole entry): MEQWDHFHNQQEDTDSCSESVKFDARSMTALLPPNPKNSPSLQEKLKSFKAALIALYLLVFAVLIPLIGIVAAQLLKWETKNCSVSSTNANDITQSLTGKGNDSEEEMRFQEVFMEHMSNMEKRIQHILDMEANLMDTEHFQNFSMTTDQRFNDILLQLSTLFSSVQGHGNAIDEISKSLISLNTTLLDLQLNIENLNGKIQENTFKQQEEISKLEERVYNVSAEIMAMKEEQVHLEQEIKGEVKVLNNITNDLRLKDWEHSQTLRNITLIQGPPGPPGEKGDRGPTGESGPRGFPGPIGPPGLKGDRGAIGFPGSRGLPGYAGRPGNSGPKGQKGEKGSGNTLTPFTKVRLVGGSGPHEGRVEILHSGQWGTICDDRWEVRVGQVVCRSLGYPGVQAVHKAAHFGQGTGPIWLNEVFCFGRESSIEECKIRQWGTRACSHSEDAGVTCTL
TEST SUMMARY: ECL cell binding, PMA-treated THP-1 cells, 11 nM
Field: ratio of binding signal (RLU) to isotype control. Provide a value for each of the binders that follow.
Report only the number, with the unit fold understood.

Which ratio of binding signal (RLU) to isotype control reading was recorded for the binder H1H21227N-N297Q (antibody, human IgG1, V domains shown) VH: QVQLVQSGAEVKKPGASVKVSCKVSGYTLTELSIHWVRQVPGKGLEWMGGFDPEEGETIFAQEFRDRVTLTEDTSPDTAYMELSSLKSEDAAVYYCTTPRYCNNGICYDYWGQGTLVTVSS VL: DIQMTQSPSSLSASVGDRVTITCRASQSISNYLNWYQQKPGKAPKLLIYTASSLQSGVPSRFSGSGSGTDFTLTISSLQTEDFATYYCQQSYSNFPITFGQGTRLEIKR ?
5

Which ratio of binding signal (RLU) to isotype control reading was recorded for the binder H1H27734P-N297Q (antibody, human IgG1, V domains shown) VH: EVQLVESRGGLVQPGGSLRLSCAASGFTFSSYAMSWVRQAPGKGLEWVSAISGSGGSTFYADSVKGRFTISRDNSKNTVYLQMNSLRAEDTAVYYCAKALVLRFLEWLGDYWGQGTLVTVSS VL: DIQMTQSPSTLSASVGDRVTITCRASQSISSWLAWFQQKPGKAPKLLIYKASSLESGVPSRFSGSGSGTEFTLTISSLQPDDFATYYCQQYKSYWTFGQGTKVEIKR ?
21

Which ratio of binding signal (RLU) to isotype control reading was recorded for the binder H1H27729P-N297Q (antibody, human IgG1, V domains shown) VH: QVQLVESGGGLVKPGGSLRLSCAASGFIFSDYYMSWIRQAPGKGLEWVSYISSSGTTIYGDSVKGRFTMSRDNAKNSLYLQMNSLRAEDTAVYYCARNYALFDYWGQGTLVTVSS VL: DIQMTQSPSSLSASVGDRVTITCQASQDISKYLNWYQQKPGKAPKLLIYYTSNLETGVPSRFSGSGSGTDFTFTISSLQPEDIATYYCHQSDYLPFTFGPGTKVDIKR ?
8

Values compiled from patent US20190367631A1.
